protocol conditions: in acetone, 293.15 K
reported property: solubility (mole fraction)
No unit in the answer, only the number.

Entry under test: `CC(=O)O[C@H]1NC(=O)[C@@H]1[C@@H](C)O[Si](C)(C)C(C)(C)C` . Its solubility (mole fraction) was 0.147

###

protocol conditions: in n-butyl acetate, 313.15 K
reported property: solubility (mole fraction)
No unit in the answer, only the number.

Entry under test: `CC(=O)O[C@H]1NC(=O)[C@@H]1[C@@H](C)O[Si](C)(C)C(C)(C)C` . Its solubility (mole fraction) was 0.199

###

protocol conditions: in acetonitrile, 293.15 K
reported property: solubility (mole fraction)
No unit in the answer, only the number.

Entry under test: `CC(=O)O[C@H]1NC(=O)[C@@H]1[C@@H](C)O[Si](C)(C)C(C)(C)C` . Its solubility (mole fraction) was 0.0493

Data origin: BigSolDB 2.1
